Molecular target: Lysosomal acid glucosylceramidase (Homo sapiens)
Sequence (P04062 whole entry): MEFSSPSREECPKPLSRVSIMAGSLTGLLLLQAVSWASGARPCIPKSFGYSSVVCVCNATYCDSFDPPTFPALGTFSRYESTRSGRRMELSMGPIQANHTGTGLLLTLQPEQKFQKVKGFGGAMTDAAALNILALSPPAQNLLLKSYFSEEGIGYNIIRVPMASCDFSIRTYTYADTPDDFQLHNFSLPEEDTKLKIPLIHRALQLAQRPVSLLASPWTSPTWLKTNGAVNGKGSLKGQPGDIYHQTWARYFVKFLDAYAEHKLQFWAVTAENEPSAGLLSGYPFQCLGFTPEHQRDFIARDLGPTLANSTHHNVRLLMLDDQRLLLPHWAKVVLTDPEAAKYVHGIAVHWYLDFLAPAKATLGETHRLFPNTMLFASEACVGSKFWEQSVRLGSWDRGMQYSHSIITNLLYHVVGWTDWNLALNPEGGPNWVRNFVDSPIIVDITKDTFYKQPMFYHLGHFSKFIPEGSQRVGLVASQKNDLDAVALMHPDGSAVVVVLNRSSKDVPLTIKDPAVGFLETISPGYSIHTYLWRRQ
Assay: Inhibition of synthetic recombinant wild type GCase enzyme velaglucerase alfa (unknown origin) at pH 5.9 preincubated for 5 mins followed by addition of 4-Methylumbelliferyl beta-D-glucopyranoside as substrate measured after 30 mins by fluorescence analysis
Value Type: pIC50
To interpret pIC50, take it as minus log10 of a concentration measured in moles per litre.

In: Field request: pIC50 | item: `C[C@H]1CC[C@H](Nc2nc(-c3cccnc3)nc3ccccc23)CC1`
Out: 7.70
